- System Under Test: BCL-XL (Homo sapiens, UniProt Q07817)
- Construct: endogenous in cells; host or cells: MOLT-4
- Sequence (Q07817 whole entry): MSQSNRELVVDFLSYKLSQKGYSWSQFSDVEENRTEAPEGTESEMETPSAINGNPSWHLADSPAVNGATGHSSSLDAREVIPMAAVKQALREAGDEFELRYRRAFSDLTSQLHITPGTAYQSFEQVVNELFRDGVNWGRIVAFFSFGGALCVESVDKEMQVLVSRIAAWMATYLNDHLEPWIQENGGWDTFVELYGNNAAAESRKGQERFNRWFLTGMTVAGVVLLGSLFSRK
- Test Description: Bcl-xL ELISA degradation in MOLT-4 cells, 6 h
- Type: cell-based
- Experimental Parameters: read-out: Bcl-xL ELISA in MOLT-4 degradation 6 h: Mean external-Abs DC50
Provide the reported DC50 of each item.

[Q] Using the record for `C#Cc1ccc([C@H](CO)NC(=O)[C@@H]2C[C@@H](O)CN2C(=O)[C@@H](NC(=O)CCCCCS(=O)(=O)NC(=O)c2nc(N(C)c3cc(C)c(Nc4nc5ccccc5s4)nn3)ccc2-c2cnn(CC34CC5CC(CC(C5)C3)C4)c2C)C(C)(C)C)cc1` , report its DC50.
[A] < 10 nM

[Q] Using the record for `Cc1ncsc1-c1ccc([C@H](C)NC(=O)[C@@H]2C[C@@H](O)CN2C(=O)[C@@H](NC(=O)C2CCN(c3ccc(S(=O)(=O)NCc4nc(N5CCc6cccc(C(=O)Nc7nc8ccccc8s7)c6C5)ccc4-c4cnn(CC5CCCCC5)c4C)cc3)CC2)C(C)(C)C)cc1` , report its DC50.
[A] > 1000 nM

[Q] Using the record for `Cc1ncsc1-c1ccc([C@H](C)NC(=O)[C@@H]2C[C@H](O)CN2C(=O)[C@@H](NC(=O)C2CCN(c3ccc(S(=O)(=O)NC(=O)c4nc(N5CCc6cccc(C(=O)Nc7nc8ccccc8s7)c6C5)ccc4-c4cnn(CC5CCCCC5)c4C)cc3)CC2)C(C)(C)C)cc1` , report its DC50.
[A] 10 to 100 nM

[Q] Using the record for `Cc1ncsc1-c1ccc([C@H](C)NC(=O)[C@@H]2C[C@@H](O)CN2C(=O)[C@@H](NC(=O)C2CCN(c3ccc(S(=O)(=O)NC(=O)c4nc(N5CCc6cccc(C(=O)Nc7nc8ccccc8s7)c6C5)ccc4-c4ccnc(OC(C)C)c4C)cc3)CC2)C(C)(C)C)cc1` , report its DC50.
[A] 100 to 500 nM

[Q] Using the record for `Cc1ncsc1-c1ccc(CNC(=O)[C@@H]2C[C@@H](O)CN2C(=O)[C@@H](NC(=O)CCc2cc(F)c(S(=O)(=O)NC(=O)c3nc(N4CCc5cccc(C(=O)Nc6nc7ccccc7s6)c5C4)ccc3-c3cnn(CC4CCCCC4)c3C)c(F)c2)C(C)(C)C)cc1` , report its DC50.
[A] 10 to 100 nM

[Q] Using the record for C#Cc1ccc([C@H](CO)NC(=O)[C@@H]2C[C@@H](O)CN2C(=O)[C@@H](NC(=O)C2CCN(c3ccc(S(=O)(=O)NC(=O)c4nc(N(C)c5cc(C)c(Nc6nc7ccccc7s6)nn5)ccc4-c4cnn(CC5(CC)CC6CC(C)CC(C6)C5)c4C)cc3)CC2)C(C)(C)C)cc1 (some centres unmarked) , report its DC50.
[A] 10 to 100 nM

[Q] Using the record for `C#Cc1ccc(CNC(=O)[C@@H]2C[C@@H](O)CN2C(=O)[C@@H](NC(=O)CCCCCS(=O)(=O)NC(=O)c2nc(N(C)c3cc(C)c(Nc4nc5cccnc5s4)nn3)ccc2-c2cnn(CC34CC5CC(CC(C5)C3)C4)c2C)C(C)(C)C)cc1` , report its DC50.
[A] 10 to 100 nM

[Q] Using the record for `Cc1ncsc1-c1ccc([C@H](C)NC(=O)[C@@H]2C[C@@H](O)CN2C(=O)[C@@H](NC(=O)CN2CCC(CS(=O)(=O)NC(=O)c3nc(N4CCc5cccc(C(=O)Nc6nc7ccccc7s6)c5C4)ccc3-c3cnn(CC4CCCCC4)c3C)CC2)C(C)(C)C)cc1` , report its DC50.
[A] < 10 nM

###

- System Under Test: BCL-XL (Homo sapiens)
- Construct: endogenous in cells; host or cells: MOLT-4
- Test Description: BCL-XL degradation assay, western blot in MOLT-4 cells, 16 h
- Assay type: cell-based
- Experimental Parameters: western blot, MOLT-4 cells, 16 h; read-out: Bcl-xL WB in MOLT-4 degradation 16 h: Average Dmax %
Parameter Measured: Dmax

[Q] Using the record for `Cc1ncsc1-c1ccc([C@H](C)NC(=O)[C@@H]2C[C@@H](O)CN2C(=O)[C@@H](NC(=O)CCCCCC(=O)N2CCN(CC[C@H](CSc3ccccc3)Nc3ccc(S(=O)(=O)NC(=O)c4csc(N5CCc6cccc(C(=O)Nc7nc8ccccc8s7)c6C5)n4)cc3S(=O)(=O)C(F)(F)F)CC2)C(C)(C)C)cc1` , report its Dmax.
[A] > 75%

[Q] Using the record for `Cc1ncsc1-c1ccc([C@H](C)NC(=O)[C@@H]2C[C@@H](O)CN2C(=O)[C@@H](NC(=O)CCc2ccc(N3CCc4cccc(C(=O)Nc5nc6ccccc6s5)c4C3)nc2C(=O)O)C(C)(C)C)cc1` , report its Dmax.
[A] < 50%

[Q] Using the record for `Cc1ncsc1-c1ccc(CNC(=O)[C@@H]2C[C@@H](O)CN2C(=O)[C@@H](c2cc(OCCCCCCCCC(=O)N(C)CC#Cc3ccc(OCCCc4ccc(N5CCc6cccc(C(=O)Nc7nc8ccccc8s7)c6C5)nc4C(=O)O)c(F)c3)no2)C(C)C)cc1` , report its Dmax.
[A] 50 to 75%

[Q] Using the record for `Cc1ncsc1-c1ccc(CNC(=O)[C@@H]2C[C@@H](O)CN2C(=O)[C@@H](NC(=O)C2(F)CC2)C(C)(C)C)c(OCC(=O)N2CCN(CC#Cc3ccc(OCCCc4sc(N5CCc6cccc(C(=O)Nc7nc8ccccc8s7)c6C5)nc4C(=O)O)c(F)c3)CC2)c1` , report its Dmax.
[A] > 75%

###

Provide the reported Dmax of each item.
- System Under Test: BCL-XL (Homo sapiens, UniProt Q07817)
- Construct: endogenous in cells; host or cells: MOLT-4
- Test Description: Bcl-xL ELISA degradation in MOLT-4 cells, 6 h
- Format: cell-based

[Q] Using the record for Cc1ncsc1-c1ccc(CNC(=O)[C@@H]2C[C@@H](O)CN2C(=O)[C@@H](NC(=O)C2(F)CC2)C(C)(C)C)c(CCCN2CCN(CC[C@H](CSc3ccccc3)Nc3ccc(S(=O)(=O)NC(=O)c4ccc(N5CCN(CC6=C(c7ccc(Cl)cc7)CCC(C)(C)C6)CC5)cc4)cc3S(=O)(=O)C(F)(F)F)CC2)c1 [I-211] , report its Dmax.
[A] < 50%

[Q] Using the record for Cc1ncsc1-c1ccc([C@H](C)NC(=O)[C@@H]2C[C@H](O)CN2C(=O)[C@@H](NC(=O)CCCCCS(=O)(=O)NC(=O)c2nc(N3CCc4cccc(C(=O)Nc5nc6ccccc6s5)c4C3)ccc2-c2cnn(CC34CC5CC(CC(C5)C3)C4)c2C)C(C)(C)C)cc1 [I-286] , report its Dmax.
[A] 50 to 75%

[Q] Using the record for Cc1ncsc1-c1ccc([C@H](C)NC(=O)[C@@H]2C[C@@H](O)CN2C(=O)[C@@H](NC(=O)N2CC3(CC(N4CCN(C(=O)c5nc(N6CCc7cccc(C(=O)Nc8nc9ccccc9s8)c7C6)ccc5-c5cnn(CC6CCCCC6)c5C)CC4)C3)C2)C(C)(C)C)cc1 [I-248] , report its Dmax.
[A] < 50%

[Q] Using the record for Cc1ncsc1-c1ccc([C@H](C)NC(=O)[C@@H]2C[C@@H](O)CN2C(=O)[C@@H](NC(=O)C2CCN(c3ccc(S(=O)(=O)NC(=O)c4nc(N5CCCc6c5nnc(Nc5nc7ccccc7s5)c6C)ccc4-c4cnn(CC5CCCCC5)c4C)cc3)CC2)C(C)(C)C)cc1 [I-310] , report its Dmax.
[A] > 75%

[Q] Using the record for Cc1ncsc1-c1ccc([C@H](C)NC(=O)[C@@H]2C[C@@H](O)CN2C(=O)[C@@H](NC(=O)N2CC(N3CCC(S(=O)(=O)NC(=O)c4nc(N5CCc6cccc(C(=O)Nc7nc8ccccc8s7)c6C5)ccc4-c4cnn(CC5CCCCC5)c4C)CC3)C2)C(C)(C)C)cc1 [I-212] , report its Dmax.
[A] 50 to 75%

[Q] Using the record for Cc1ncsc1-c1ccc(CNC(=O)[C@@H]2C[C@@H](O)CN2C(=O)[C@@H](NC(=O)C2(F)CC2)C(C)(C)C)c(OCCN2CCN(CC[C@H](CSc3ccccc3)Nc3ccc(S(=O)(=O)NC(=O)c4ccc(N5CCN(CC6=C(c7ccc(Cl)cc7)CCC(C)(C)C6)CC5)cc4)cc3S(=O)(=O)C(F)(F)F)CC2)c1 [I-394] , report its Dmax.
[A] 50 to 75%

###

- System Under Test: BCL-XL (Homo sapiens)
- Construct: endogenous in cells; host or cells: MOLT-4
- Test Description: BCL-XL degradation assay, western blot in MOLT-4 cells, 16 h
- Type: cell-based
- Experimental Parameters: western blot, MOLT-4 cells, 16 h; read-out: Bcl-xL WB in MOLT-4 degradation 16 h: Average Dmax %
Provide the reported Dmax of each item.

[Q] Using the record for Cc1ncsc1-c1ccc([C@H](C)NC(=O)[C@@H]2C[C@@H](O)CN2C(=O)C(c2cc(OC3CN(c4ccc(S(=O)(=O)NC(=O)c5nc(N6CCc7cccc(C(=O)Nc8nc9ccccc9s8)c7C6)ccc5-c5cnn(CC6CCCCC6)c5C)cc4)C3)no2)C(C)C)cc1 (stereo partly shown) , report its Dmax.
[A] > 75%

[Q] Using the record for `Cc1ncsc1-c1ccc([C@H](CC(=O)N(C)CCCC(=O)N2CCN(CC[C@H](CSc3ccccc3)Nc3ccc(S(=O)(=O)NC(=O)c4ccc(N5CCN(CC6=C(c7ccc(Cl)cc7)CCC(C)(C)C6)CC5)cc4)cc3S(=O)(=O)C(F)(F)F)CC2)NC(=O)[C@@H]2C[C@@H](O)CN2C(=O)[C@@H](NC(=O)C2(F)CC2)C(C)(C)C)cc1` , report its Dmax.
[A] < 50%

[Q] Using the record for `Cc1ncsc1-c1ccc([C@H](C)NC(=O)[C@@H]2C[C@@H](O)CN2C(=O)[C@@H](NC(=O)CCc2ccc(S(=O)(=O)NC(=O)c3nc(N4CCc5cccc(C(=O)Nc6nc7ccccc7s6)c5C4)ccc3-c3cnn(CC4CCCCC4)c3C)cc2)C(C)(C)C)cc1` , report its Dmax.
[A] > 75%

[Q] Using the record for `C#Cc1ccc([C@H](CO)NC(=O)[C@@H]2C[C@@H](O)CN2C(=O)[C@@H](NC(=O)CCc2ccc(S(=O)(=O)NC(=O)c3nc(N4CCc5cccc(C(=O)Nc6nc7cccnc7s6)c5C4)ccc3-c3cnn(CC4CCCCC4)c3C)cc2)C(C)(C)C)cc1` , report its Dmax.
[A] > 75%
